Cited source: patent US20210024646A1

tested_system: T1, extracellular domain of human CD73 protein (CD73-ECD), C-terminus polyhistidine-tagged (human, UniProt P21589 27-547)
T1 construct: also called Human CD73-ECD; human recombinant CD73 enzyme (CD73 extracellular domain)
T1 sequence: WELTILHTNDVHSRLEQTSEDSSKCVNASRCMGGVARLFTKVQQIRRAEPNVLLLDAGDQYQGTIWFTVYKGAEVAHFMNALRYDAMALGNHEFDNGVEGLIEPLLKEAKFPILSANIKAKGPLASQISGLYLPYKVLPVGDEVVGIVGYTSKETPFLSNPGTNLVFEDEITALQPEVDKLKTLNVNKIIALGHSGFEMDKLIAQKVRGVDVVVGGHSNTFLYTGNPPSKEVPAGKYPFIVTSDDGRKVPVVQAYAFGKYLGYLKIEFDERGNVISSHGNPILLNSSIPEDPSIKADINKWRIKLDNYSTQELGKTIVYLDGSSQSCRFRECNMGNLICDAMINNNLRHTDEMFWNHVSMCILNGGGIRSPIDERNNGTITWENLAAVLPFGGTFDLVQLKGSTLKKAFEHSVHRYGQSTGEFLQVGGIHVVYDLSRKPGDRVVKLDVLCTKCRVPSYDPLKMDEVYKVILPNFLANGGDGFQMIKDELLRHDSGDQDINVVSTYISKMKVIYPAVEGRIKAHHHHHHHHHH
method_description: ELISA, coated CD73-ECD
outcome_measure: binding result

binder	experimental_value
Hu001c-15 (antibody, V domains shown, Humanized) VH: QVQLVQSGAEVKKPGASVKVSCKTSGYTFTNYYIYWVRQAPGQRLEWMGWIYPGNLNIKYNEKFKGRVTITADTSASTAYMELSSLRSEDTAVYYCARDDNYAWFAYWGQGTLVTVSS VL: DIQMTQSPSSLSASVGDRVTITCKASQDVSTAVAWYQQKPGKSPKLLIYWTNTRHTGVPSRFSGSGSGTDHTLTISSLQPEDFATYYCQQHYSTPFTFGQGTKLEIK	binds
Hu002c-12 (antibody, V domains shown, Humanized) VH: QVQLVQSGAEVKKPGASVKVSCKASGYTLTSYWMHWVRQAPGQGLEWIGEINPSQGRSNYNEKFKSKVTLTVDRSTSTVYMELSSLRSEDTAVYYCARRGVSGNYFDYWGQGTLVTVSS VL: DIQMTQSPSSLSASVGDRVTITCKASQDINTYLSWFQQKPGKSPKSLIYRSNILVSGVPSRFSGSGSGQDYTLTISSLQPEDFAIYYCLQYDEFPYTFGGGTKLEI	binds
Hu001c-31 (antibody, V domains shown, Humanized) VH: QVQLVQSGAEVKKPGASVKVSCKASGYTFTNYYIYWVRQAPGQRLEWIGWIYPGNLNIKYNEKFKGRSTLTADKSASTAYMELSSLRSEDTAVYYCARDDNYAWFAYWGQGTLVTVSS VL: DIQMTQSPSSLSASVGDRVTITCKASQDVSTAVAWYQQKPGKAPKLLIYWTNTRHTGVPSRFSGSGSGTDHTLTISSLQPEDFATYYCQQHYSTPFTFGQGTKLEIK	binds
